Experiment: Phase 1a pharmacokinetics in healthy volunteers, single IV administration
Type: in vivo, human
Settings: human, plasma, intravenous, 0.025 mg/kg, in 20 ml 0.9% NaCl, 10- and 60-min infusion; read-out: Cmax
Source text: A total of 73 potentially eligible healthy volunteers gave written acknowledgement of informed consent to participate in a Phase 1a study to assess the safety and pharmacokinetics of pafolacianine versus placebo. Fifty-four were found suitable for participation, of which 30 were enrolled in the study. Twenty-four subjects were white, 1 subject was Black/African-American, 1 was Asian, 1 was mixed race and 3 were of another race. […]
readout_name: Cmax (ng/mL)

INSERT INTO measurements (molecule, units_of_measure, numeric_result) VALUES
  ('CC1(C)C(=CC=C2CCCC(C=CC3=[N+](CCCCS(=O)(=O)[O-])c4ccc(S(=O)(=O)O)cc4C3(C)C)=C2Oc2ccc(CC(NC(=O)c3ccc(NCc4cnc5nc(N)[nH]c(=O)c5n4)cc3)C(=O)O)cc2)N(CCCCS(=O)(=O)O)c2ccc(S(=O)(=O)O)cc21 (stereo not shown)', 'ng/mL', 93.3);
